We begin with a simple list: items and their reported folding enthalpy.
assay: folding enthalpy; higher = less favourable; fluorescence melt of hairpins on a sequencing array, two-state fit; settings: sodium 0.088 M
PROPERTY_MEASURED: folding enthalpy (kcal/mol)

monomer_sequence="GATCATAGCAATGATC ((((((....))))))" property_measured="folding enthalpy" value_observed=-40.3
monomer_sequence="GAGCCTCCGAAAGGACTC (((..(((....))))))" property_measured="folding enthalpy" value_observed=-11.8
monomer_sequence="GCCTTTCGAAAGAATGGC (((.(((....))).)))" property_measured="folding enthalpy" value_observed=-42.6
monomer_sequence="GTGGAGCGAAAGCTACAC (((.(((....))).)))" property_measured="folding enthalpy" value_observed=-30.8
monomer_sequence="GATATGGGAAACCGTATC ((((.((....)).))))" property_measured="folding enthalpy" value_observed=-32
monomer_sequence="GTGTACGCGAAAGCGCAC (((..(((....))))))" property_measured="folding enthalpy" value_observed=-16.7
monomer_sequence="GCCAACGGAAACGTCGGC (((.(((....))).)))" property_measured="folding enthalpy" value_observed=-42.8
monomer_sequence="CGAACGGAAACGTAGTCG ((((((....)))..)))" property_measured="folding enthalpy" value_observed=-10.8
monomer_sequence="GTCGGCCGAAAGGCGGAC (((.(((....))).)))" property_measured="folding enthalpy" value_observed=-27.5
monomer_sequence="CAGTCGAAAGACTG (((((....)))))" property_measured="folding enthalpy" value_observed=-27.2
monomer_sequence="GTGACCGAAAGGTAACAC ((((((....)))..)))" property_measured="folding enthalpy" value_observed=-16.9
monomer_sequence="GATCGTATTTACGATC ((((((....))))))" property_measured="folding enthalpy" value_observed=-42.5
monomer_sequence="GATCGAGCCATCGATC ((((((....))))))" property_measured="folding enthalpy" value_observed=-39.7
monomer_sequence="GTTTTGGGAAACCAAAAC (((((((....)))))))" property_measured="folding enthalpy" value_observed=-43.5
monomer_sequence="GATCGGGAGCCGATC ((((((...))))))" property_measured="folding enthalpy" value_observed=-22
monomer_sequence="GATCAGGATCTGATC ((((((...))))))" property_measured="folding enthalpy" value_observed=-32.1
monomer_sequence="GATCGTTATAACGATC ((((((....))))))" property_measured="folding enthalpy" value_observed=-40.1
monomer_sequence="GTTTTATCGAAAGATAAC (((..(((....))))))" property_measured="folding enthalpy" value_observed=-11.4
monomer_sequence="GAGAAACGAAAGTTACTC (((.(((....))).)))" property_measured="folding enthalpy" value_observed=-28.9
monomer_sequence="GCGTCCCGAAAGGGTCGC (((.(((....))).)))" property_measured="folding enthalpy" value_observed=-36.9
monomer_sequence="GCCCTTGCGAAAGCAGGC (((..(((....))))))" property_measured="folding enthalpy" value_observed=-14.7
monomer_sequence="GATCTTACCAAAGATC ((((((....))))))" property_measured="folding enthalpy" value_observed=-34.6
monomer_sequence="GGAGGTGGAAACGCTTCC (((.(.(....).).)))" property_measured="folding enthalpy" value_observed=-23.3
monomer_sequence="GCGGCTGGAAACAACCGC ((((.((....)).))))" property_measured="folding enthalpy" value_observed=-45
monomer_sequence="GCGTCGGAACGC ((((....))))" property_measured="folding enthalpy" value_observed=-16.8
monomer_sequence="GTCGTCGAAAGACTGAC ((((((....))).)))" property_measured="folding enthalpy" value_observed=-19.4

----------
Parameter Tm: see the listing below.
experiment: melting temperature; fluorescence melt of hairpins on a sequencing array, two-state fit, raised by 9.35 °C to match UV melts; settings: sodium 0.088 M
PROPERTY_MEASURED: Tm (°C)

monomer_sequence="GCTATGCGAAAGCTAAGC (((..((....))..)))" property_measured=Tm value_observed=47.6
monomer_sequence="GCTTTCGAAAGAACTAGC ((((((....)))..)))" property_measured=Tm value_observed=25.4
monomer_sequence="CGACCGGAAACGGTGTCG ((((((....)))..)))" property_measured=Tm value_observed=43
monomer_sequence="GTTTTGGAAACAAAAC ((((((....))))))" property_measured=Tm value_observed=49.3
monomer_sequence="GATGGCGAAAGCCCGATC ((((((....)))..)))" property_measured=Tm value_observed=27.7
monomer_sequence="GTATCGCCGAAAGGCTAC (((..(((....))))))" property_measured=Tm value_observed=32.9
monomer_sequence="GCCGTGGGAAACCGTGGC (((..((....))..)))" property_measured=Tm value_observed=47.4
monomer_sequence="GGTCACCGAAAGGTACC (((.(((....))))))" property_measured=Tm value_observed=47.1
monomer_sequence="GCTGCGCGAAAGCGAAGC (((.(((....))).)))" property_measured=Tm value_observed=69.1
monomer_sequence="GCGCTACCGAAAGGTCGC (((..(((....))))))" property_measured=Tm value_observed=51.4
monomer_sequence="GTTTTCGAAAGAATAAC ((((((....))).)))" property_measured=Tm value_observed=31.2
monomer_sequence="GATCACCAAGTGATC ((((((...))))))" property_measured=Tm value_observed=52.5
monomer_sequence="GCGGAAGCCGC ((((...))))" property_measured=Tm value_observed=55.8
monomer_sequence="GATCGATGGTTCGATC ((((((....))))))" property_measured=Tm value_observed=51.2
monomer_sequence="GGATCCGAAAGGATGTCC ((((((....)))..)))" property_measured=Tm value_observed=35.2
monomer_sequence="GATCTAAATCTAGATC ((((((....))))))" property_measured=Tm value_observed=35.4
monomer_sequence="GCTCCCACGAAAGTGAGC (((..(((....))))))" property_measured=Tm value_observed=40.2
monomer_sequence="GACGTGAAAACGTC (((((....)))))" property_measured=Tm value_observed=61.8
monomer_sequence="GCCTTAGCGAAAGCTGGC (((..(((....))))))" property_measured=Tm value_observed=51.5
monomer_sequence="GCGGGCCCCCGC ((((....))))" property_measured=Tm value_observed=64.4
monomer_sequence="GAGAACGGAAACGTTCTC (((((((....)))))))" property_measured=Tm value_observed=64.7
monomer_sequence="GATCGTGAGTACGATC ((((((....))))))" property_measured=Tm value_observed=54
monomer_sequence="GTCCTGGGAAACCAGGGC (.(((((....))))).)" property_measured=Tm value_observed=56.9
monomer_sequence="GAGTTGCGAAAGCATCTC (((.(((....))).)))" property_measured=Tm value_observed=50.1
monomer_sequence="GTTCACGAAAGTGGCAAC ((((((....)))..)))" property_measured=Tm value_observed=31.4
monomer_sequence="GCCTTACGAAAGTAGGGC (((.(((....))).)))" property_measured=Tm value_observed=57.3

----------
The sequences listed here are annotated with their folding enthalpy.
test: folding enthalpy; higher = less favourable; fluorescence melt of hairpins on a sequencing array, two-state fit; conditions: sodium 0.088 M
PROPERTY_MEASURED: folding enthalpy (kcal/mol)

monomer_sequence="GCTCCGGGAAACCGAAGC (((.(((....))).)))" reading_unit=kcal/mol value_observed=-27.9
monomer_sequence="GATCTTATTAAAGATC ((((((....))))))" reading_unit=kcal/mol value_observed=-30.7
monomer_sequence="GATCCCCCGCGGGATC ((((((....))))))" reading_unit=kcal/mol value_observed=-34.2
monomer_sequence="GGCTATGCGAAAGCAGCC (((..(((....))))))" reading_unit=kcal/mol value_observed=-27.3
monomer_sequence="GCGTTGGGAAACTAGCGC (((.(.(....).).)))" reading_unit=kcal/mol value_observed=-35.9
monomer_sequence="GGCAGAGGAAACCCTGCC (((((.(....).)))))" reading_unit=kcal/mol value_observed=-37.8
monomer_sequence="GTATACGAAAGTAGCTAC ((((((....)))..)))" reading_unit=kcal/mol value_observed=-8.67
monomer_sequence="GATCATCGTCATGATC ((((((....))))))" reading_unit=kcal/mol value_observed=-32.4
monomer_sequence="GACAAAGCGAAAGCTGTC (((..(((....))))))" reading_unit=kcal/mol value_observed=-19.7
monomer_sequence="GATCCAGCATTGGATC ((((((....))))))" reading_unit=kcal/mol value_observed=-44.4
monomer_sequence="GAACTAGGAAACTAGTTC (((((((....)))))))" reading_unit=kcal/mol value_observed=-40.2
monomer_sequence="GTGTTCGAAAGAACACAC ((((((....)))..)))" reading_unit=kcal/mol value_observed=-11.8
